Below, each of the compounds is paired with its reported MBC value.
# Test system: E. coli RS218
# TEST: microbe, parasite or virus in culture
# MEASUREMENT_SETUP: Escherichia coli, RS218, read-out: MBC, E. coli RS218, colony counting on LB agar from wells without visible growth

COMPOUND	TESTED_ON	MBC
[H]/N=C(/N)N[C@H]1[C@H](O)[C@@H](O)[C@H](O[C@@H]2O[C@@H](C)[C@](O)(C=O)[C@H]2O[C@@H]2O[C@@H](CO)[C@H](O)[C@@H](O)[C@@H]2NC)[C@@H](N/C(N)=N\[H])[C@@H]1O [Streptomycin, streptomycin]	E. coli RS218	> 41000 µM
CO/N=C(\C(=O)N[C@@H]1C(=O)N2C(C(=O)O)=C(COC(C)=O)CS[C@H]12)c1csc(N)n1 [Cefotaxime, cefotaxime]	E. coli RS218	< 0.625 µM
CC1(C)S[C@@H]2[C@H](NC(=O)[C@H](N)c3ccccc3)C(=O)N2[C@H]1C(=O)O [Ampicillin, ampicillin]	E. coli RS218	5 to 20 µM

###

# Test system: E. coli RS218
# TEST: microbe, parasite or virus in culture
# MEASUREMENT_SETUP: Escherichia coli, RS218, read-out: MBC, E. coli RS218, colony counting on LB agar from wells without visible growth

COMPOUND	TESTED_ON	MBC (µM)
Cc1onc(-c2ccccc2)c1C(=O)N[C@@H]1C(=O)N2[C@@H]1SC(C)(C)[C@@H]2C(=O)O [Oxacillin, oxacillin]	E. coli RS218	1280
CN(C)[C@@H]1C(O)=C(C(N)=O)C(=O)[C@@]2(O)C(O)=C3C(=O)c4c(O)cccc4[C@@](C)(O)[C@H]3C[C@@H]12 [Tetracycline, tetracycline]	E. coli RS218	5
